- testProtocol: Transport of supinoxin in Caco-2 cells (bidirectional permeability)
- Format: in vitro ADME
- condition: human, Caco-2, Caco-2 cell monolayers; supinoxin 1 µM; read-out: apical to basolateral apparent permeability coefficient
measurementName: Papp A→B at 120 min, 1 µM (×10⁻⁶ cm/s)

compound: COCCc1ccc(OCC(O)CNC(C)C)cc1 (centres unmarked) [metoprolol, reference compound]
measurementName: Papp A→B at 120 min, 1 µM
readoutValue: 15.5
//
compound: COc1cc(OC)cc(N2CCN(C(=O)Nc3nc4cc(F)ccc4nc3OC)CC2)c1
measurementName: Papp A→B at 120 min, 1 µM
readoutValue: 18.5

All figures here come from paper PMC7998731.
